- Tested on: J558L
- assay text: Inhibition of proteasome in mouse J558L cell lysate assessed as cleavage of Suc-leu-leu-val-Tyr-AMC at 100 nM after 15 mins
- Design: scale not given: the % may be the effect or the level left
Recorded measurements of Activity, one per entry
experimental endpoint: Activity

- CC(C)C[C@@H](C=O)NC(=O)[C@H](CC(C)C)NC(=O)[C@H](CC(C)C)NC(=O)OCc1ccccc1 (stereo in doubt): 84%
- CC(C)CC(NC(=O)[C@@H](CC(C)C)NC(=O)OCc1ccccc1)C(=O)N[C@H](C=O)CC(C)C (stereo in doubt): 71%
- CC(C)C[C@@H](C=O)NC(=O)[C@@H](CC(C)C)NC(=O)[C@H](CC(C)C)NC(=O)OCc1ccccc1: 25%
- CC(C)CC(NC(=O)[C@H](CC(C)C)NC(=O)OCc1ccccc1)C(=O)N[C@@H](C=O)CC(C)C (stereo in doubt; (-)): 92%
- CC(C)C[C@H](NC(=O)[C@@H](CC(C)C)NC(=O)OCc1ccccc1)C(=O)N[C@@H](C=O)CC(C)C: 100%
- CC(C)C[C@@H](C=O)NC(=O)[C@H](CC(C)C)NC(=O)[C@H](CC(C)C)NC(=O)OCc1ccccc1 (stereo in doubt; 2): 32%
- CC(C)CC(NC(=O)[C@@H](CC(C)C)NC(=O)OCc1ccccc1)C(=O)N[C@H](C=O)CC(C)C (single isomer, unassigned; (+)): 115%
- CC(C)CC(NC(=O)[C@H](CC(C)C)NC(=O)OCc1ccccc1)C(=O)N[C@@H](C=O)CC(C)C (stereo in doubt; (+)): 104%
- CC(C)C[C@H](C=O)NC(=O)[C@@H](CC(C)C)NC(=O)[C@@H](CC(C)C)NC(=O)OCc1ccccc1: 87%

* * *

- Tested on: EMT6
- assay text: Inhibition of proteasome in mouse EMT6 cell lysate assessed as cleavage of Suc-leu-leu-val-Tyr-AMC at 100 nM after 60 mins
- Parameters: scale not given: the % may be the effect or the level left
# Activity values compiled below
experimental endpoint: Activity

* CC(C)C[C@@H](C=O)NC(=O)[C@H](CC(C)C)NC(=O)[C@H](CC(C)C)NC(=O)OCc1ccccc1 (stereo in doubt; 2) | 35%
* CC(C)CC(NC(=O)[C@@H](CC(C)C)NC(=O)OCc1ccccc1)C(=O)N[C@H](C=O)CC(C)C (stereo in doubt) | 84%
* CC(C)CC(NC(=O)[C@@H](CC(C)C)NC(=O)OCc1ccccc1)C(=O)N[C@H](C=O)CC(C)C (single isomer, unassigned; (+)) | 95%
* CC(C)CC(NC(=O)[C@H](CC(C)C)NC(=O)OCc1ccccc1)C(=O)N[C@@H](C=O)CC(C)C (stereo in doubt; (+)) | 99%
* CC(C)C[C@H](C=O)NC(=O)[C@@H](CC(C)C)NC(=O)[C@@H](CC(C)C)NC(=O)OCc1ccccc1 | 91%
* CC(C)C[C@@H](C=O)NC(=O)[C@@H](CC(C)C)NC(=O)[C@H](CC(C)C)NC(=O)OCc1ccccc1 | 31%
* CC(C)CC(NC(=O)[C@H](CC(C)C)NC(=O)OCc1ccccc1)C(=O)N[C@@H](C=O)CC(C)C (stereo in doubt; (-)) | 91%
* CC(C)C[C@@H](C=O)NC(=O)[C@H](CC(C)C)NC(=O)[C@H](CC(C)C)NC(=O)OCc1ccccc1 (stereo in doubt) | 86%

* * *

- Test system: J558L
- assay text: Inhibition of proteasome in mouse J558L cell lysate assessed as cleavage of Suc-leu-leu-val-Tyr-AMC at 100 nM after 60 mins
- Parameters: scale not given: the % may be the effect or the level left
experimental endpoint: Activity (%)

• CC(C)C[C@@H](C=O)NC(=O)[C@H](CC(C)C)NC(=O)[C@H](CC(C)C)NC(=O)OCc1ccccc1 (stereo in doubt) = 95
• CC(C)C[C@H](C=O)NC(=O)[C@@H](CC(C)C)NC(=O)[C@@H](CC(C)C)NC(=O)OCc1ccccc1 = 89
• CC(C)CC(NC(=O)[C@H](CC(C)C)NC(=O)OCc1ccccc1)C(=O)N[C@@H](C=O)CC(C)C (stereo in doubt; (-)) = 94
• CC(C)CC(NC(=O)[C@@H](CC(C)C)NC(=O)OCc1ccccc1)C(=O)N[C@H](C=O)CC(C)C (single isomer, unassigned; (+)) = 123
• CC(C)C[C@@H](C=O)NC(=O)[C@@H](CC(C)C)NC(=O)[C@H](CC(C)C)NC(=O)OCc1ccccc1 = 50
• CC(C)C[C@H](NC(=O)[C@@H](CC(C)C)NC(=O)OCc1ccccc1)C(=O)N[C@@H](C=O)CC(C)C = 112
• CC(C)C[C@@H](C=O)NC(=O)[C@H](CC(C)C)NC(=O)[C@H](CC(C)C)NC(=O)OCc1ccccc1 (stereo in doubt; 2) = 60
• CC(C)CC(NC(=O)[C@@H](CC(C)C)NC(=O)OCc1ccccc1)C(=O)N[C@H](C=O)CC(C)C (stereo in doubt) = 82
• CC(C)CC(NC(=O)[C@H](CC(C)C)NC(=O)OCc1ccccc1)C(=O)N[C@@H](C=O)CC(C)C (stereo in doubt; (+)) = 107

* * *

- assay text: Inhibition of chymotrypsin-like activity of 20S proteasome from human erythrocyte
experimental endpoint: IC50

* CC(C)CC(NC(=O)[C@H](CC(C)C)NC(=O)OCc1ccccc1)C(=O)N[C@@H](C=O)CC(C)C (stereo in doubt; (+)) | > 100 µM
* CC(C)C[C@@H](C=O)NC(=O)[C@H](CC(C)C)NC(=O)[C@H](CC(C)C)NC(=O)OCc1ccccc1 (stereo in doubt) [MG-132] | 5.46 µM
* CC(C)CC(NC(=O)[C@@H](CC(C)C)NC(=O)OCc1ccccc1)C(=O)N[C@H](C=O)CC(C)C (single isomer, unassigned; (+)) | > 100 µM
* CC(C)C[C@H](NC(=O)[C@@H](CC(C)C)NC(=O)OCc1ccccc1)C(=O)N[C@@H](C=O)CC(C)C | > 100 µM

* * *

- assay text: Inhibition of chymotrypsin-like activity of 20S proteasome from human erythrocyte
experimental endpoint: IC50 (nM)

* CC(C)CC(NC(=O)[C@H](CC(C)C)NC(=O)OCc1ccccc1)C(=O)N[C@@H](C=O)CC(C)C (stereo in doubt; (-)) | 970
* CC(C)C[C@H](C=O)NC(=O)[C@@H](CC(C)C)NC(=O)[C@@H](CC(C)C)NC(=O)OCc1ccccc1 | 9810
* CC(C)CC(NC(=O)[C@@H](CC(C)C)NC(=O)OCc1ccccc1)C(=O)N[C@H](C=O)CC(C)C (stereo in doubt) | 1790
* CC(C)C[C@@H](C=O)NC(=O)[C@H](CC(C)C)NC(=O)[C@H](CC(C)C)NC(=O)OCc1ccccc1 (stereo in doubt; 2) [MG-132] | 890
* CC(C)C[C@@H](C=O)NC(=O)[C@@H](CC(C)C)NC(=O)[C@H](CC(C)C)NC(=O)OCc1ccccc1 | 220

* * *

- System: EMT6
- assay text: Inhibition of proteasome in mouse EMT6 cell lysate assessed as cleavage of Suc-leu-leu-val-Tyr-AMC at 1000 nM after 15 mins
- Set-up: scale not given: the % may be the effect or the level left
I would appreciate it if you labelled entries 1 when Activity is 40% or higher, otherwise 0.

- CC(C)CC(NC(=O)[C@@H](CC(C)C)NC(=O)OCc1ccccc1)C(=O)N[C@H](C=O)CC(C)C (stereo in doubt): 1
- CC(C)C[C@@H](C=O)NC(=O)[C@@H](CC(C)C)NC(=O)[C@H](CC(C)C)NC(=O)OCc1ccccc1: 0
- CC(C)C[C@@H](C=O)NC(=O)[C@H](CC(C)C)NC(=O)[C@H](CC(C)C)NC(=O)OCc1ccccc1 (stereo in doubt): 0
- CC(C)CC(NC(=O)[C@H](CC(C)C)NC(=O)OCc1ccccc1)C(=O)N[C@@H](C=O)CC(C)C (stereo in doubt; (-)): 1
- CC(C)C[C@H](C=O)NC(=O)[C@@H](CC(C)C)NC(=O)[C@@H](CC(C)C)NC(=O)OCc1ccccc1: 1
- CC(C)C[C@@H](C=O)NC(=O)[C@H](CC(C)C)NC(=O)[C@H](CC(C)C)NC(=O)OCc1ccccc1 (stereo in doubt; 2): 0
- CC(C)CC(NC(=O)[C@H](CC(C)C)NC(=O)OCc1ccccc1)C(=O)N[C@@H](C=O)CC(C)C (stereo in doubt; (+)): 1
- CC(C)CC(NC(=O)[C@@H](CC(C)C)NC(=O)OCc1ccccc1)C(=O)N[C@H](C=O)CC(C)C (single isomer, unassigned; (+)): 1

* * *

- System: EMT6
- assay text: Inhibition of proteasome in mouse EMT6 cell lysate assessed as cleavage of Suc-leu-leu-val-Tyr-AMC at 100 nM after 30 mins
- Parameters: scale not given: the % may be the effect or the level left
experimental endpoint: Activity (%)

• CC(C)C[C@H](C=O)NC(=O)[C@@H](CC(C)C)NC(=O)[C@@H](CC(C)C)NC(=O)OCc1ccccc1 = 90
• CC(C)CC(NC(=O)[C@@H](CC(C)C)NC(=O)OCc1ccccc1)C(=O)N[C@H](C=O)CC(C)C (single isomer, unassigned; (+)) = 95
• CC(C)C[C@@H](C=O)NC(=O)[C@H](CC(C)C)NC(=O)[C@H](CC(C)C)NC(=O)OCc1ccccc1 (stereo in doubt) = 77
